Values from patent US4220755A

- Test system: Escherichia coli NIHTC-2
- Test: MIC, agar dilution method, pH 7.2
- Type: cell-based
- Test Parameters: NIHTC2; pH 7.2; Escherichia coli NIHTC-2; read-out: Minimum inhibition concentration (MIC)
This section presents compounds with their documented MIC values.
Quick reminder: number only, in µg/mL, skip the unit.

For orientation, consider the following solved cases.
Compound	MIC [µg/mL]
CO[C@H]1[C@@H](O)[C@H](N)[C@@H](O[C@H]2O[C@H]([C@H](C)N)CC[C@H]2N)[C@H](O)[C@@H]1N(C)CCN	3.12
CNCC[C@H](O)CN(C)[C@H]1[C@@H](O)[C@H](O[C@H]2O[C@H]([C@H](C)N)CC[C@H]2N)[C@@H](N)[C@H](O)[C@@H]1OC	1.56
CO[C@H]1[C@@H](O)[C@H](N)[C@@H](O[C@H]2O[C@H]([C@H](C)N)CC[C@H]2N)[C@H](O)[C@@H]1N(C)C(=O)CNC(N)=O [Compound 3, 4-N-hydantoylfortimicin B, reference compound]	12.5

Here is the next item to consider.
So for CO[C@H]1[C@@H](O)[C@H](N)[C@@H](O[C@H]2O[C@H]([C@H](C)N)CC[C@H]2N)[C@H](O)[C@@H]1N(C)C(=O)CO , the logged MIC turned out to be 12.5

---

- Test system: Klebsiella pneumoniae 3020 Y-60
- Test: MIC, agar dilution method, pH 7.2
- Assay type: cell-based
- Test Parameters: 3020Y60; pH 7.2; Klebsiella pneumoniae 3020 Y-60; 1**: gentamicin, producing adenylsynthetase; read-out: Minimum inhibition concentration (MIC)
Outcome Measure: MIC

MIC reported for this compound CO[C@H]1[C@@H](O)[C@H](N)[C@@H](O[C@H]2O[C@H]([C@H](C)N)CC[C@H]2N)[C@H](O)[C@@H]1N(C)CC(O)CCN (stereo partly shown) [Compound 29] : 25 µg/mL

Measured MIC, CNCC[C@H](O)CN(C)[C@H]1[C@@H](O)[C@H](O[C@H]2O[C@H]([C@H](C)N)CC[C@H]2N)[C@@H](N)[C@H](O)[C@@H]1OC [Compound 28] : 12.5 µg/mL

Input CO[C@H]1[C@@H](O)[C@H](N)[C@@H](O[C@H]2O[C@H]([C@H](C)N)CC[C@H]2N)[C@H](O)[C@@H]1N(C)C(=O)CNC(N)=O [Compound 3, 4-N-hydantoylfortimicin B, reference compound] . Output MIC: 100 µg/mL

MIC for CO[C@H]1[C@@H](O)[C@H](N)[C@@H](O[C@H]2O[C@H]([C@H](C)N)CC[C@H]2N)[C@H](O)[C@@H]1N(C)CCN [Compound 15, 4-N-(2-aminoethyl)fortimicin B] is 50 µg/mL

Notebook: CN[C@H]1[C@@H](O)[C@H](O[C@H]2O[C@H]([C@H](C)N)CC[C@H]2N)[C@@H](N)[C@H](O)[C@@H]1OC [Compound 1, fortimicin B] , MIC read as > 100 µg/mL

get_value(item= CO[C@H]1[C@@H](O)[C@H](N)[C@@H](O[C@H]2O[C@H]([C@H](C)N)CC[C@H]2N)[C@H](O)[C@@H]1N(C)C(=O)CO [Compound 4, 4-N-glycolylfortimicin B] , readout=MIC) returns > 100 µg/mL

Measured MIC of CO[C@H]1[C@@H](O)[C@H](N)[C@@H](O[C@H]2O[C@H]([C@H](C)N)CC[C@H]2N)[C@H](O)[C@@H]1N(C)C[C@@H](O)CCN [Compound 27] : 12.5 µg/mL
